MEASUREMENT_PROTOCOL: Half life in Balb/c mouse at 5 mg/kg, iv
Format: ADME, organism-based
Parameters: dose 5 mg/kg, route intravenous
MEASUREMENT_CONDITIONS: in vivo
REPORTED_PROPERTY: half-life
# output: numeric value plus its unit

Data request: Identify measured half-life associated with `Cc1ccc(NC(=O)Nc2cc(C(F)(F)F)ccc2F)cc1Nc1ccc2c(c1)NC(=O)/C2=C\c1ccc[nH]1`
Data returned: 264 min

* * *

MEASUREMENT_PROTOCOL: Half life in Balb/c mouse at 20 mg/kg, po
Type: ADME, organism-based
Set-up: dose 20 mg/kg, route oral
MEASUREMENT_CONDITIONS: in vivo
REPORTED_PROPERTY: half-life (h)
Field format: number, assumed h, no unit text.

Data request: Identify measured half-life associated with `Cc1ccc(NC(=O)Nc2cc(C(F)(F)F)ccc2F)cc1Nc1ccc2c(c1)NC(=O)/C2=C\c1ccc[nH]1`
Data returned: 4.5
